Test system: HCT-116 colon
PROTOCOL DETAILS: NCI-60 one-dose screen, 48 h
CONDITION LABEL: 10 µM unless noted
This is part of a sample that, as a whole, favours compounds with a hit. Of some 83,000 tested, about 20% had one in any assay. Active and inactive are the calls of the source. Rule for the calls: active = growth percent below 10; inactive = the rest.
Choose the fitting class; nothing outside t (active), f (inactive) is accepted.

| COMPOUND | LABEL CLASS |
| --- | --- |
| O=C1OCC2=C1C(c1ccc3c(c1)OCO3)CC(=O)N2c1cccc(Cl)c1 (stereo not drawn) | f |
| Cc1cccc2c(=O)c3c(sc12)c(NCCNCCO)nc1ccccc13 | t |
| COc1cc2cc(Oc3ccc(NC(=O)Nc4cccc(C(F)(F)F)c4)cc3)c(C)nc2cc1OCCN1CCCCC1 | t |
| COc1ccc(/C=C2\Oc3cc(C)c(Cl)cc3C2=O)cc1OC | f |
| O=S(=O)(OCCO)c1ccccc1 | f |
| CCCCC(O)Cn1ncc(C(=O)OCC)c1NC(=O)NCc1ccccc1C(F)(F)F (stereo not drawn) | f |

# evaluate next
Dear colleague, could you share the recorded outcome for COC(=O)[C@H]1CCCN1C(=O)[C@H]1CCCN1C(=O)[C@@H](Cc1c[nH]c2ccccc12)NC(=S)Nc1cc(C(F)(F)F)cc(C(F)(F)F)c1 when you have a moment?
f

----------
Test system: NCI-H23 lung
PROTOCOL DETAILS: NCI-60 one-dose screen, 48 h (100 = growth as untreated, 0 = no growth, -100 = all killed)
CONDITION LABEL: 10 µM unless noted
The panel holds about 83,000 compounds, 20% with a hit somewhere; the sample as a whole holds those more often.
The threshold is 90%. Values of growth beneath it are tagged criterion met; values meeting or exceeding it are tagged criterion not met.

Please review the following examples before continuing.
| COMPOUND | LABEL CLASS |
| --- | --- |
| COc1ccc(Nc2[nH]n(C3=Nc4ccccc4Sc4ccccc43)c(=O)c2C#N)cc1 | criterion met |
| Cc1ccc(S(=O)(=O)N2C/C(=C\c3cc(F)cc(F)c3)C(=O)/C(=C/c3cc(F)cc(F)c3)C2)cc1 | criterion met |

is_below(growth, 90%) for COC(=O)[C@@H]1CCCN1C(=O)[C@@H]1CCCN1C(=O)[C@@H](Cc1c[nH]c2ccccc12)NC(=S)Nc1cc(C(F)(F)F)cc(C(F)(F)F)c1 ?
criterion met

Is growth of COc1ccccc1-n1c(SCc2cc(OC)c(OC)c(OC)c2)nc2ccc(Cl)cc2c1=O strictly below 90%?
criterion met

Please indicate whether the reported growth of O=C(N/N=C(\CS(=O)(=O)c1ccccc1)c1cc2cc(Br)ccc2oc1=O)c1ccccc1 is strictly below 90%.
criterion not met

Could you please tell me whether growth recorded for CCN(CC)CCCNc1ccc(C)c2sc3ccccc3c(=O)c12 is less than 90%?
criterion met

Lab note: confirm whether the reported growth for this compound is below 90%, equality not counting. compound: O=C(N/N=C/c1ccc(OC(F)F)c(OC2CCCC2)c1)c1cnn2c1NC(c1ccccc1)C2 (stereo not drawn)
criterion not met

----------
System: UO-31 renal
PROTOCOL DETAILS: NCI-60 one-dose screen, 48 h (100 = growth as untreated, 0 = no growth, -100 = all killed)
CONDITION LABEL: 10 µM unless noted
The panel holds about 83,000 compounds, 20% with a hit somewhere; the sample as a whole holds those more often. Activity calls are given as the source filed them. The calls were made as follows: active = growth percent below 10; inactive = the rest.
Catalogue of growth values

Item under review: O=C1C2CC3C(CC2C(=O)[N]1[Sn]([c]1ccccc1)([c]1ccccc1)[c]1ccccc1)C1(Cl)C(Cl)=C(Cl)C3(Cl)C1(Cl)Cl (stereo unspecified) . Reported growth?
-98.3% (active)

Entry under review: Cc1ccc2nc(NC(=O)CSC(=S)N3CCN(Cc4ccccc4)CC3)sc2c1 . Reported growth?
-43.4% (active)

Form field: reported growth of COc1ccccc1CNCCCCCCCCCCCCN1C(=O)c2ccc3c4c(ccc(c24)C1=O)C(=O)N(CCCCCCCCCCCCNCc1ccccc1OC)C3=O
109% (inactive)

For Cc1ccc(N=c2nc3sc4c(C)ccc(C)c4n3c(N)c2C#N)cc1 , what is its reported growth?
89.6% (inactive)

Would you kindly share the measured growth for O=S(=O)(OCCO)c1ccccc1 ?
90.4% (inactive)

May I ask what growth has been recorded for O/N=C/c1cccs1 ?
89.1% (inactive)

These measurements were taken from PubChem BioAssay (NCI).
